PROCEDURE TEXT: inhibitors of cytokine-induced beta cell apoptosis, primary screen, luminescence (AID 435005);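 note: 0% = cytokine-treated negative control wells and 100% = positive control rescue; higher means more ATP so stronger rescue from cytokine killing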
TEST PARAMETERS: INS-1E cytokine-induced death, ATP luminescence, 48 h; hits give high values; percent of positive-control rescue, neutral wells zero; concentration not given here
The campaign covered roughly 300,000 compounds. About 2,400 (0.8%) were called active. What follows is part of a selection rich in actives, with near analogues and random picks from the rest.
# protection from apoptosis annotations
// units = %; emit number, no label

>>> df
                                   compound          reported_endpoint  assay_result
0   CC(=O)Nc1ccc(NC(=O)COc2ncnc3ccccc23)cc1  protection from apoptosis          1.06
1    O=C(Nc1c2c(nc3ccccc13)CCCC2)c1ccccc1Br  protection from apoptosis         -2.43
2  COC(=O)[C@]1(Cc2ccccc2)N[C@H](CN(C)S(=O)(=O)c2ccc(F)cc2)[C@@H]2C(=O)N(Cc3ccccc3)C(=O)[C@@H]21  protection from apoptosis          10.3

Request: Tell me its protection from apoptosis given COc1cc(C(=O)NCC(c2ccco2)N2CCCC2)ccc1OCc1ccccc1 (stereo not given) as the entry.
Result: 0.158

Request: Tell me its protection from apoptosis given COc1ccc(C)cc1NC(=O)c1cc(-c2ccccc2)nc2c1cnn2C(C)C as the entry.
Result: 15.6

====

PROCEDURE TEXT: inhibitors of cytokine-induced beta cell apoptosis, primary screen, luminescence (AID 435005)
TEST PARAMETERS: INS-1E cytokine-induced death, ATP luminescence, 48 h; percent of positive-control rescue, neutral wells zero; concentration not given here
The campaign covered roughly 300,000 compounds. About 2,400 (0.8%) were called active.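 The calls were made as follows: active = Every replicate reaches about 75%, or at least half do and their mean reaches it too (limit read from the data); inconclusive = At least half of replicates reach the limit but their mean does not; inactive = Under half of replicates reach the limit.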 What follows is part of a selection rich in actives, with near analogues and random picks from the rest.
// allowed return values: 1.0 = active, 0.0 = inactive

COMPOUND	LABEL CLASS
C/C(=N\NC(=O)Cc1ccc(Cl)cc1)c1ccccn1	1.0
O=C(COC(=O)COc1cccc(F)c1)NCC1CCCCC1	0.0
C#CCOCCOCCOCCNc1nc(N2CCN(C(=O)C([C@@H](C)O)n3cc([C@@H](N)CCCCN)nn3)CC2)nc(N2CCN(C(=O)[C@H](CCCCN)n3cc(CN)nn3)CC2)n1 (stereo not given in full)	0.0
O=C(CNC(=O)c1n[nH]c2ccccc12)Nc1cc(Cl)ccc1Cl	0.0
C/C(=N\NC(=O)Cc1ccc(F)cc1)c1ccc(F)cc1	0.0

Request: For this compound, state the assay outcome: CCOc1ccc(-n2c(O)c(/C=N/Nc3nc(C)cc(C)n3)c3ccccc3c2=O)cc1
Result: 1.0

Request: For this compound, state the assay outcome: CCOC(=O)/C(=C\c1ccc([N+](=O)[O-])cc1)C(=O)c1cc(C(C)=O)c(Nc2ccccc2)s1
Result: 1.0

====

PROCEDURE TEXT: inhibitors of cytokine-induced beta cell apoptosis, primary screen, luminescence (AID 435005);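 note: 0% = cytokine-treated negative control wells and 100% = positive control rescue; higher means more ATP so stronger rescue from cytokine killing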
TEST PARAMETERS: INS-1E cytokine-induced death, ATP luminescence, 48 h; hits give high values; percent of positive-control rescue, neutral wells zero; concentration not given here
Among all 300,000 compounds or so, about 2,400 (0.8%) were called active. This is one part of a sample in which actives are shown more often than they occur.
REPORTED ENDPOINT: protection from apoptosis (%)
// units = %; emit number, no label

>>> print(df.to_string())
                                   compound  assay_result
0  CCOC(=O)c1cnc(-n2nc(C)cc2C)nc1NNc1cc(C)nc(-c2ccccc2)n1          84.8

Request: Tell me its protection from apoptosis given CCOC(=O)c1cnc(-n2nc(C)cc2C)nc1Nc1cccc(C(C)=O)c1 as the entry.
Result: 8.92

Request: Tell me its protection from apoptosis given CCCCCCn1c(CN2CCCCC2)nc2c1c(=O)n(C)c(=O)n2C as the entry.
Result: 2.42

Request: Tell me its protection from apoptosis given O=C(CN1C(=O)NC2(CCCCCC2)C1=O)Nc1ccc([N+](=O)[O-])cc1 as the entry.
Result: 0.997

Request: Tell me its protection from apoptosis given Cc1cccc(-n2ncc3c(=O)[nH]c(SCC(=O)Nc4cc(C)on4)nc32)c1 as the entry.
Result: 1.12

Request: Tell me its protection from apoptosis given O=C(COC(=O)COc1ccccc1F)Nc1cccc(S(=O)(=O)N2CCCCC2)c1 as the entry.
Result: -4.07

Request: Tell me its protection from apoptosis given O=C(NCCc1ccco1)c1ccc(OCc2cn3ccccc3n2)cc1 as the entry.
Result: 1.94

Request: Tell me its protection from apoptosis given CC(=O)Nc1ccc(S(=O)(=O)NCC(=O)OCC(=O)c2ccc[nH]2)cc1 as the entry.
Result: 0.385

Request: Tell me its protection from apoptosis given C=C(C)C(=O)O[C@H]1C/C(C)=C\C(=O)/C=C(\C)[C@H](O)[C@@H]2OC(=O)C(=C)[C@@H]21 as the entry.
Result: 96.8

====

PROCEDURE TEXT: inhibitors of cytokine-induced beta cell apoptosis, primary screen, luminescence (AID 435005);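 note: 0% = cytokine-treated negative control wells and 100% = positive control rescue; higher means more ATP so stronger rescue from cytokine killing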
TEST PARAMETERS: INS-1E cytokine-induced death, ATP luminescence, 48 h; percent of positive-control rescue, neutral wells zero; concentration not given here
The whole screen tested about 300,000 compounds, of which about 2,400 (0.8%) were called active.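 Rule for the calls: active = Every replicate reaches about 75%, or at least half do and their mean reaches it too (limit read from the data); inconclusive = At least half of replicates reach the limit but their mean does not; inactive = Under half of replicates reach the limit.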 The list comes from a sample in which actives are over-represented; it also holds close analogues and randomly drawn compounds.
// allowed return values: 1 (yes) = active, 0 (no) = inactive

Previously resolved entries follow.
>>> df
                                   compound  label_class
0  CCC(CO)Oc1cc(NC(=O)c2ccc(Cl)cc2)c2ncn(C(C)C)c2c1 (stereo unspecified)       0 (no)
1      CC(C)(C)OC(=O)NNc1c2ccccc2nc2ccccc12       0 (no)

Request: For this compound, state the assay outcome: CC(=O)Nc1ccc(Nc2c3ccccc3nc3ccccc23)cc1
Result: 1 (yes)

Request: For this compound, state the assay outcome: CN(CC(=O)Nc1ccc(Cl)cc1)CC(=O)Nc1cccc2ccccc12
Result: 0 (no)

Request: For this compound, state the assay outcome: Cc1nc2ccccc2cc1OCc1ccc(F)cc1
Result: 1 (yes)

Request: For this compound, state the assay outcome: Fc1ccccc1COc1cccc2cccnc12
Result: 0 (no)

====

PROCEDURE TEXT: inhibitors of cytokine-induced beta cell apoptosis, primary screen, luminescence (AID 435005);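 note: 0% = cytokine-treated negative control wells and 100% = positive control rescue; higher means more ATP so stronger rescue from cytokine killing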
TEST PARAMETERS: INS-1E cytokine-induced death, ATP luminescence, 48 h; hits give high values; percent of positive-control rescue, neutral wells zero; concentration not given here
Hit rate of the full screen: of about 300,000 compounds, about 2,400 (0.8%) were called active. The sample holds actives, similar compounds and a random draw of the others, so the mix is not that of the screen.
REPORTED ENDPOINT: protection from apoptosis (%)
// units = %; emit number, no label

Sample records with protection from apoptosis:
MOLECULE	protection from apoptosis [%]
Cc1ccc(CC(=O)Nc2ccc(S(=O)(=O)N3CCOCC3)cc2)cc1C	0.192
Cc1ccc(NS(=O)(=O)c2ccc(C(C)C)cc2)cc1S(=O)(=O)N1CCOCC1	4.91
COc1ccc2c(c1)CCNC2Cc1ccc(OC)c(O)c1 (stereo not given)	-7.35
CC(=O)c1ccc(NC(=O)CSc2nc3ccccc3c(=O)n2CCCN2CCOCC2)cc1	-12.1
Cc1ccc(C)c(S(=O)(=O)N2CCN(C(=O)Nc3ccccc3)CC2)c1	-4.43

Request: Tell me its protection from apoptosis given Cc1oc2c(c1C(=O)N1CCOCC1)C(=O)c1ccccc1C2=O as the entry.
Result: 108

Request: Tell me its protection from apoptosis given Cc1ccc(S(=O)(=O)N2CCN(C)CC2)cc1 as the entry.
Result: 4.63

Request: Tell me its protection from apoptosis given CCc1ccc(OCC2c3cc(OC)c(OC)cc3CCN2C(C)=O)cc1 (stereo not given) as the entry.
Result: -2.37

Request: Tell me its protection from apoptosis given O=C(NCCc1c[nH]c2ccccc12)C1CCN(Cc2ccc(Br)cc2)CC1 as the entry.
Result: -12.4

Request: Tell me its protection from apoptosis given C#CCOCCOCCOCCNc1nc(N2CCN(C(=O)[C@H](CO)n3cc([C@@H](N)C(C)C)nn3)CC2)nc(N2CCN(C(=O)[C@H](CCC(=O)O)n3cc([C@@H](N)[C@H](C)CC)nn3)CC2)n1 as the entry.
Result: -6.94

Request: Tell me its protection from apoptosis given CCOc1ccc(CN2CCCN(C)CC2)cc1 as the entry.
Result: -3.58

Request: Tell me its protection from apoptosis given O=C(COC(=O)c1cccnc1Cl)NC12CC3CC(CC(C3)C1)C2 as the entry.
Result: -1.6

Request: Tell me its protection from apoptosis given O=C(N/N=C/c1ccc(OC(=O)c2ccccc2Cl)cc1)c1ccc(O)cc1 as the entry.
Result: -1.66
